# Tested on: human colon cancer cells HT29
# PROTOCOL DETAILS: MTT growth inhibition, HT29 cells
# Format: cell-based
# CONDITION: HT-29, 72 h after treatment, read-out: Drug concentration (IC50) at which 50% cancer cells survived
Hi there, I'd appreciate the recorded log10 of IC50 for every entry that follows.
Base-10 log of IC50, unit µM.

# count of solved cases: 3
compound="COc1cccc2c1C(=O)c1c(O)c3c(c(O)c1C2=O)C[C@@](O)(C(C)=O)C[C@@H]3O[C@H]1C[C@H](N)[C@H](O)[C@H](C)O1 [Daunorubicin, reference compound]" property_measured="log10 of IC50" number=1.80
compound="CCNC(=O)CCC(NC(=O)c1cc2ccccc2oc1=O)C(=O)OCC (stereo not shown)" property_measured="log10 of IC50" number=2.02
compound=O=C(O)c1cc2cc(Cl)cc(Cl)c2oc1=O property_measured="log10 of IC50" number=2.68

Hello, I would appreciate it if you could give log10 of IC50 for each entry below.
1. O=C(O)c1cc2cc([N+](=O)[O-])ccc2oc1=O
2. O=C(O)c1cc2cc(Cl)ccc2oc1=O
3. O=C(O)c1cc2cc(Br)cc(Br)c2oc1=O
4. CCNC(=O)CC[C@H](N)C(=O)OC

1. 2.66
2. 2.85
3. 2.77
4. 2.40
